# Test system: MDA-MB-231
# protocol: Cytotoxicity against human MDA-MB-231 cells assessed as cell growth inhibition incubated for 96 hrs by SRB assay
# Format: functional
For each record, check the reported GI50: if it is below 40 nM write 1, else write 0.

1) COc1ccc2c(C(=O)c3cccc(Cl)c3)c(-c3ccc(OC)c(O)c3)[nH]c2c1    0
2) COc1cccc(C(=O)c2c(-c3ccc(OC)c(O)c3)[nH]c3cc(OC)ccc23)c1    0
3) COc1ccc2c(C(=O)c3cc(F)cc(F)c3)c(-c3ccc(OC)c(O)c3)[nH]c2c1    0
4) COc1ccc2c(C(=O)c3cc(OC)c(OC)c(OC)c3)c(-c3ccc(OC)c(Br)c3)[nH]c2c1    0

Prompt line: Is GI50 strictly under 40 nM for the entry COc1ccccc1-c1[nH]c2cc(OC)c(OC)c(OC)c2c1C(=O)c1cc(OC)c(OC)c(OC)c1 ?
Response line: 0

Prompt line: Is GI50 strictly under 40 nM for the entry COc1ccc(-c2[nH]c3c(O)c(OC)ccc3c2C(=O)c2cc(OC)c(OC)c(OC)c2)cc1 ?
Response line: 0

Prompt line: Is GI50 strictly under 40 nM for the entry COc1ccc2c(C(=O)c3cc(OC)c(OC)c(OC)c3)c(-c3ccc(OC)c(N)c3)[nH]c2c1 ?
Response line: 1

Prompt line: Is GI50 strictly under 40 nM for the entry COc1ccc(-c2[nH]c3c(OC)c(OC)ccc3c2C(=O)c2cc(OC)c(OC)c(OC)c2)cc1O ?
Response line: 1

Prompt line: Is GI50 strictly under 40 nM for the entry COc1ccc(/C=C\c2cc(OC)c(OC)c(OC)c2)cc1O ?
Response line: 1

The reported numbers originate from ChEMBL document CHEMBL6078705.
